- subject.of.test: HIV-1 JR-CSF Env N355A (HIV-1 isolate JR-CSF) (UniProt P20871)
- measurement.protocol: cell-based or functional assay
observed.property: Fold IC50 increase relative to wild-type (fold)
One number for each entry, in fold.

Worked examples follow.
PGT-125 (antibody, V domains shown) VH: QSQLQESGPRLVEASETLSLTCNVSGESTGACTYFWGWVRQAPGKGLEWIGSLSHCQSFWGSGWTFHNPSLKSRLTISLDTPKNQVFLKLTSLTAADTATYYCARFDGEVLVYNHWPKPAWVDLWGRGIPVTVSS VL: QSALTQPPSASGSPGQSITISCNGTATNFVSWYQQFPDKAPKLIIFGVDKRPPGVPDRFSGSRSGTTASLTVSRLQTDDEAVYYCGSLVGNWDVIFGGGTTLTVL | 1.2
PGT-131 (antibody, V domains shown) VH: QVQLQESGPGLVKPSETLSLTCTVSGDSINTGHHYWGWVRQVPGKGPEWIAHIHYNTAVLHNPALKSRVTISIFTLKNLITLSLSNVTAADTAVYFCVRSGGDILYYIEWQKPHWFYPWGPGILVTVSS VL: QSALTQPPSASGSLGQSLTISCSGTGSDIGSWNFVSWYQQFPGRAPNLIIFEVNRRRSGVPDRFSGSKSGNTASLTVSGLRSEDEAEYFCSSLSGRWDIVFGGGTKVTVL | 2.3

[ask] Specify reported Fold IC50 increase relative to wild-type for the binder shown: PGT-123 (antibody, V domains shown) VH: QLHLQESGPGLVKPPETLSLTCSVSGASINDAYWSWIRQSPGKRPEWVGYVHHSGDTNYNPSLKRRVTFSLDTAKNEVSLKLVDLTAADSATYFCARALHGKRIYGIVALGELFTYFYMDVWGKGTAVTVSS VL: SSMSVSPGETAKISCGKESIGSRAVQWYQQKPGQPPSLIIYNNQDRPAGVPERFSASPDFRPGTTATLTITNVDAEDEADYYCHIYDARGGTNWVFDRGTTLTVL
[reply] 0.5

The reported numbers originate from patent US20200024330A1.
